Test system: SF-268 CNS
Test: NCI-60 one-dose screen, 48 h
Settings: 10 µM
The panel holds about 83,000 compounds, 20% with a hit somewhere; the sample as a whole holds those more often. Calls of active or inactive are those of the source. The calls were made as follows: active = growth percent below 10; inactive = the rest.
Valid outcomes are listed here; reply with one: active, inactive

Consider the following illustrative entries.
molecule	experimental.system	label.class
O=C(c1ccccc1)C(Sc1ccccc1)c1ccccc1 (stereo unspecified)	SF-268 CNS	inactive
Cc1cc(C)c2nc(C)c(C)[n+]([O-])c2c1	SF-268 CNS	inactive
CCCCOCC(=O)NC(NP(=O)(N(C)C)N(C)C)C(Cl)(Cl)Cl (stereo unspecified)	SF-268 CNS	inactive
NC1CCC(Nc2nc(NCc3ccc(-c4ccco4)nc3)c3ncn(C4CCCC4)c3n2)CC1 (stereo unspecified)	SF-268 CNS	active
CCCCCC(CCC)COC(=O)c1ccc(OC)cc1 (stereo unspecified)	SF-268 CNS	inactive

Exam item: What is the recorded call for this molecule in the test? CCOC(=O)Nc1ccc2c(c1)C(=O)N(CC)c1ccccc1O2
Marked response: inactive

Exam item: What is the recorded call for this molecule in the test? COc1ccc(C(=O)c2sc3nc(-c4cccs4)ccc3c2N)cc1OC
Marked response: inactive

Exam item: What is the recorded call for this molecule in the test? Cc1cccc2c(Nc3ccc(NS(C)(=O)=O)cc3)c3ccc([N+](=O)[O-])cc3nc12
Marked response: inactive

Exam item: What is the recorded call for this molecule in the test? NC(=O)c1ccc(Br)o1
Marked response: inactive

Exam item: What is the recorded call for this molecule in the test? CCOC(=O)c1c(C)n(-c2ccc(Cl)cc2)c2ccc(OC(=O)/C=C/c3ccccc3)cc12
Marked response: inactive

Exam item: What is the recorded call for this molecule in the test? COc1ccc(S(=O)(=O)Nc2cc(/C=C\c3cc(OC)c(OC)c(OC)c3)ccc2OC)cc1
Marked response: active

Exam item: What is the recorded call for this molecule in the test? C[n+]1c(/C=C/c2c[nH]c3ccccc23)ccc2ccccc21
Marked response: inactive

Exam item: What is the recorded call for this molecule in the test? CCCCc1ccc(NC(=O)N(CCCl)N=O)cc1
Marked response: inactive

Exam item: What is the recorded call for this molecule in the test? CCN(CCCNC(=O)Cc1cc(=O)oc2cc(N(C)C)ccc12)CCNc1ccnc2cc(Cl)ccc12
Marked response: inactive

Exam item: What is the recorded call for this molecule in the test? COc1ccc(-c2csc(NC(=O)CO[N+](=O)[O-])n2)cc1
Marked response: inactive

Exam item: What is the recorded call for this molecule in the test? COc1ccc(Nc2ccnc(N3CCN(c4ccnc5cc(Cl)ccc45)CC3)n2)cc1
Marked response: inactive

Exam item: What is the recorded call for this molecule in the test? O=C(Nc1ccc(CN2CCOCC2)cc1)c1ccc(-c2cc(Cl)ccc2Cl)o1
Marked response: inactive

Exam item: What is the recorded call for this molecule in the test? CCN(CC)CCn1c(=N)n(CC(O)c2ccc(Cl)c(Cl)c2)c2ccccc21 (stereo unspecified)
Marked response: inactive

Exam item: What is the recorded call for this molecule in the test? C=C1C(=O)O[C@H]2[C@H]1CC/C(COC(=O)OCCCCCOC(=O)OC/C1=C/CC[C@@]3(C)O[C@H]3[C@H]3OC(=O)C(=C)[C@@H]3CC1)=C\CC[C@@]1(C)O[C@@H]21
Marked response: active

Exam item: What is the recorded call for this molecule in the test? CCOC(=O)c1ccc(NC(=O)Nc2nncs2)cc1
Marked response: inactive

Exam item: What is the recorded call for this molecule in the test? COc1ccc(CCc2nc3cc(-c4c(C)noc4C)ccc3n2CCN2CCOCC2)cc1
Marked response: inactive

Exam item: What is the recorded call for this molecule in the test? c1ccc(COCC[P+](c2ccccc2)(c2ccccc2)c2ccccc2)cc1
Marked response: inactive

Exam item: What is the recorded call for this molecule in the test? O=C(Nc1ccc(OS(=O)(=O)Cc2ccccc2)cc1)C12CC3CC(CC(C3)C1)C2
Marked response: inactive

Exam item: What is the recorded call for this molecule in the test? CCCCCCCOc1cccc(/C=C2/C(=O)N=C3SCCCN32)c1
Marked response: inactive

Exam item: What is the recorded call for this molecule in the test? CC(=O)/C(=C\c1ccc(Cl)cc1)c1ccccc1
Marked response: inactive

Exam item: What is the recorded call for this molecule in the test? Clc1cc(Cl)c(OCCCCCCN2CCNCC2)c(Cl)c1
Marked response: inactive

Exam item: What is the recorded call for this molecule in the test? Cc1ccc2oc(=O)cc(/C(=C3/C=CC=N3)c3ccc[nH]3)c2c1
Marked response: inactive

Exam item: What is the recorded call for this molecule in the test? CCOc1nc(-c2ccccc2)cc2c(O)c(C(=O)N/N=C/c3ccc(OC)cc3)[nH]c(=O)c12
Marked response: inactive
